Each recorded value in this set is attributed to patent US20220220095A1.

Molecular target: hKv3.1b (Homo sapiens, UniProt P48547)
Construct: expressed in transfected cells
Sequence (P48547 1-585 isoform P48547-2): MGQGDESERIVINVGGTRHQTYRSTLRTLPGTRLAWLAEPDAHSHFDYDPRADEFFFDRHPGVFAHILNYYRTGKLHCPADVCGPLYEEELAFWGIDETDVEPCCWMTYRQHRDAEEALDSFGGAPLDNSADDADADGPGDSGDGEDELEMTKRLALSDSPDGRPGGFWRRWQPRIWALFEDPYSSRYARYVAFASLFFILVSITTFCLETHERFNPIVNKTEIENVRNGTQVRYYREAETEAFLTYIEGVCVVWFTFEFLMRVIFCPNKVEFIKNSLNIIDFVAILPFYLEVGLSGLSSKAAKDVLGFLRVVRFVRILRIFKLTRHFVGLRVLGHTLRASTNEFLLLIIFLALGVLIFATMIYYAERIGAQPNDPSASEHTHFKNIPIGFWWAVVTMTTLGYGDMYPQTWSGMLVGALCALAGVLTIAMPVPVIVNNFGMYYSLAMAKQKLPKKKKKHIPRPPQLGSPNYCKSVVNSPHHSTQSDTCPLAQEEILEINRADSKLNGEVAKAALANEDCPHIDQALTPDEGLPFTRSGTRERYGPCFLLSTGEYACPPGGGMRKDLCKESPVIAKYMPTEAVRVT
Assay: Automated whole-cell patch-clamp (QPatch-16x) on HEK-293 cells stably expressing hKv3.1b: shift of voltage threshold for channel activation
Type: cell-based
Details: concentration needed to shift the threshold 5 mV, read out from fitted concentration response curve; HEK-293 hKv3.1b
measurement-name: ECdelta5mV

Cc1cnc(CNC(=O)c2ccn(S(=O)(=O)c3c(C)cc(F)cc3C)n2)cn1 : 2700 nM
COc1ccc(S(=O)(=O)n2ccc(C(=O)NCc3cc(C)no3)n2)cc1 : 1100 nM
Cc1cnc(CNC(=O)c2ccn(S(=O)(=O)c3ccc(OC(F)F)cc3)n2)cn1 : 3600 nM
COc1ccc(S(=O)(=O)n2ccc(C(=O)NCc3ncc(C)o3)n2)cc1 : 1500 nM
COc1ccc(S(=O)(=O)n2ccc(C(=O)NCc3cnc(C)cn3)n2)c(F)c1 : 2400 nM
Cc1cnc(CNC(=O)c2ccn(S(=O)(=O)c3ccc(OC(F)(F)F)cc3)n2)cn1 : 4000 nM
COc1ccc(S(=O)(=O)n2ccc(C(=O)NCc3ccno3)n2)cc1 : 3400 nM
Cc1ccc(S(=O)(=O)n2ccc(C(=O)NCc3cnc(C)cn3)n2)c(C)c1 : 1100 nM
